The measured values listed here are drawn from ChEMBL document CHEMBL5137017.

target: Phosphatidylinositol 4,5-bisphosphate 3-kinase catalytic subunit gamma isoform (Homo sapiens); assay: Inhibition of PI3Kgamma (unknown origin) using phosphatidylinositol 4,5-bisphosphate as substrate measured for 15 to 60 mins by TR-FRET based Adapta universal kinase assay
measuredParameter: pIC50
Numbers only, as −log10 of the molar value.

What the record says about C[C@H]1OC(=O)N(c2nc(-c3cnc(N)nc3C(F)(F)F)cc(N3CCOCC3)n2)[C@H]1CO : pIC50 is 6.64

* * *

assay: Tmax in Sprague-Dawley rat at 3 mg/kg, po measured upto 24 hrs by LC-MS/MS analysis; assay type: ADME, organism-based; conditions: in vivo
measuredParameter: Tmax (min)
Numbers only, in min.

What the record says about C[C@H]1OC(=O)N(c2nc(-c3cnc(N)nc3C(F)(F)F)cc(N3CCOCC3)n2)[C@H]1CO : Tmax is 30
